Reference for the values: the supplement of paper PMC10567573

B1: SLC2A12 (parent)
chain: TRIMIGLTLVFFVQITGQPNILFY

Variants of: B1
assay_overview: protein stability index of a GFP-peptide fusion (GPS, HEK-293T) (PSI 1-6); higher = more stable;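 further: lentivirally expressed fusions sorted by FACS into six bins by GFP to DsRed ratio, PSI derived from sequencing read proportions per bin multiplied by bin number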
recorded_conditions: c terminus: a fixed tail appended
Please enter T where protein stability index is greater than or equal to 3, and F where it is lower.

mutation_annotation=R2Y class=F
mutation_annotation=Y24I class=T
mutation_annotation=I15G class=F
mutation_annotation=N20I class=F
mutation_annotation=T8Y class=F
mutation_annotation=T8Q class=F
mutation_annotation=M4V class=T
mutation_annotation=I21S class=T
mutation_annotation=M4Q class=F
mutation_annotation=G6D class=F
mutation_annotation=I5V class=F
mutation_annotation=I3H class=F
mutation_annotation=F23L class=T
mutation_annotation=T8S class=F
mutation_annotation=R2D class=T
mutation_annotation=L7F class=F
mutation_annotation=I3C class=F
mutation_annotation=I5K class=T
mutation_annotation=F23E class=T
mutation_annotation=V13H class=T
mutation_annotation=T8I class=F
mutation_annotation=T8F class=F
mutation_annotation=L9F class=T
mutation_annotation=L7H class=T
mutation_annotation=F11D class=F
mutation_annotation=G6C class=F
mutation_annotation=Y24W class=F
mutation_annotation=Q14S class=T
mutation_annotation=L7K class=F
mutation_annotation=G6T class=T
mutation_annotation=G6A class=F
mutation_annotation=F12Y class=T
mutation_annotation=Q14N class=T
mutation_annotation=I21G class=T
mutation_annotation=V13L class=F
mutation_annotation=R2Q class=T
mutation_annotation=N20G class=T
mutation_annotation=V10W class=F
mutation_annotation=F23I class=T
mutation_annotation=G17M class=T
mutation_annotation=P19F class=T
mutation_annotation=I5Q class=T
mutation_annotation=G17K class=F
mutation_annotation=F11E class=F
mutation_annotation=M4D class=T
mutation_annotation=T8N class=T
mutation_annotation=R2W class=T
mutation_annotation=N20P class=T
mutation_annotation=V10N class=T
mutation_annotation=I21P class=T
mutation_annotation=T1Q class=F
mutation_annotation=V10E class=T
mutation_annotation=F11G class=F
mutation_annotation=Y24R class=T
mutation_annotation=F12Q class=T
mutation_annotation=L7S class=T
mutation_annotation=I15C class=T
mutation_annotation=I15A class=F
mutation_annotation=L7W class=F
mutation_annotation=L7Y class=T
mutation_annotation=T1G class=T
mutation_annotation=F12D class=F
mutation_annotation=T8V class=T
mutation_annotation=T16L class=F
mutation_annotation=G17R class=T
mutation_annotation=G17D class=T
mutation_annotation=Y24Q class=F
mutation_annotation=L22F class=F
mutation_annotation=F11R class=F
mutation_annotation=I15L class=F
mutation_annotation=L7V class=F
mutation_annotation=Q14T class=T
mutation_annotation=Y24M class=T
mutation_annotation=G6I class=F
mutation_annotation=P19L class=T
mutation_annotation=V10D class=F
mutation_annotation=P19N class=F
mutation_annotation=T8L class=T
mutation_annotation=F23C class=F
mutation_annotation=G6W class=F
mutation_annotation=T16W class=F
mutation_annotation=G17T class=F
mutation_annotation=Q18D class=F
mutation_annotation=P19M class=F
